# TEST_TARGET: Nuclear receptor ROR-gamma (Homo sapiens)
# Sequence (P51449 whole entry, the tested form may be a part): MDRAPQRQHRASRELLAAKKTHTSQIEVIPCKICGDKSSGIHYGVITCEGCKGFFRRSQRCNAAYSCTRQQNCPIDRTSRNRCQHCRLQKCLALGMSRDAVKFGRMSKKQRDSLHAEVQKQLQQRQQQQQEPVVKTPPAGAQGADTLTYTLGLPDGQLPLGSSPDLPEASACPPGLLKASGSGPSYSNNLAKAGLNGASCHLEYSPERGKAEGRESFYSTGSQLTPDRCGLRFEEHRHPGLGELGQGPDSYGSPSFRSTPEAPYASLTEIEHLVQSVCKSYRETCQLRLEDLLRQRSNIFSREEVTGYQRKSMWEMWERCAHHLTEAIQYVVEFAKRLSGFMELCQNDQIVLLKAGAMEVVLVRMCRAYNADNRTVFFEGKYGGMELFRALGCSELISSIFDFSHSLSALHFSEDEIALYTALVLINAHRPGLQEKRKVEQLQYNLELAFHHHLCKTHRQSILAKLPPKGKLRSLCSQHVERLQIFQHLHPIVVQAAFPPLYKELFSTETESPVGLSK
# ASSAY_PROTOCOL: Inverse agonist activity at recombinant human GST-tagged ROR-gamma receptor ligand binding domain assessed as inhibition of receptor and co-activator TRAP220 interaction by FRET assay
pIC50: −log10 of the molar value.

CPD_SMILES | TEST_TARGET | RESULT_MODIFIER | pIC50
CNC(=O)c1cccc(-c2ccc(N(CC(F)(F)F)S(=O)(=O)c3cccc4c3ccn4C)cc2)c1 | Nuclear receptor ROR-gamma (Homo sapiens) | = | 5.49
Cc1cc2nccn2cc1-c1ccc(N(CC(F)(F)F)S(=O)(=O)c2cccc(Cl)c2)cc1 | Nuclear receptor ROR-gamma (Homo sapiens) | = | 6.28
O=C(c1ccc(F)c(-c2ccc3c(c2)CCCN3C(=O)c2c(F)cccc2Cl)c1)N1CCCC1 | Nuclear receptor ROR-gamma (Homo sapiens) | = | 5.72
Cc1cc(C2(C(=O)O)CC2)ccc1-c1ccc(N(CC(F)(F)F)S(=O)(=O)c2cccc(Cl)c2)cc1 | Nuclear receptor ROR-gamma (Homo sapiens) | < | 5.00
Cc1cc(O)ccc1-c1ccc(N(CC(F)(F)F)S(=O)(=O)c2cccc3c2ccn3C)cc1 | Nuclear receptor ROR-gamma (Homo sapiens) | = | 6.68
NC(=O)c1cccc(-c2ccc(N(CC(F)(F)F)S(=O)(=O)c3cccc(Cl)c3)cc2)c1 | Nuclear receptor ROR-gamma (Homo sapiens) | = | 5.42
Cc1cc(O)ccc1-c1ccc(N(CC(F)(F)F)S(=O)(=O)c2cccc(Cl)c2)cc1 | Nuclear receptor ROR-gamma (Homo sapiens) | = | 6.28
O=S(=O)(c1cccc(Cl)c1)N(CC(F)(F)F)c1ccc(C(O)(C(F)(F)F)C(F)(F)F)cc1 | Nuclear receptor ROR-gamma (Homo sapiens) | = | 7.14
Cc1ccc(S(=O)(=O)N(CC(F)(F)F)c2ccc3c(c2)CCCN3C(=O)c2c(F)cccc2Cl)cc1C | Nuclear receptor ROR-gamma (Homo sapiens) | = | 8.00
NC(=O)c1ccc(Cl)c(-c2ccc(N(CC(F)(F)F)S(=O)(=O)c3cccc(Cl)c3)cc2)c1 | Nuclear receptor ROR-gamma (Homo sapiens) | = | 5.38
Cn1ccc2c(S(=O)(=O)N(CC(F)(F)F)c3ccc(C(O)(C(F)(F)F)C(F)(F)F)cc3)cccc21 | Nuclear receptor ROR-gamma (Homo sapiens) | = | 7.14
CNC(=O)c1ccc(F)c(-c2ccc(N(CC(F)(F)F)S(=O)(=O)c3cccc4c3ccn4C)cc2)c1 | Nuclear receptor ROR-gamma (Homo sapiens) | = | 5.33
CNS(=O)(=O)c1cccc(-c2ccc3c(c2)CCCN3C(=O)c2c(F)cccc2Cl)c1 | Nuclear receptor ROR-gamma (Homo sapiens) | = | 5.19
Cn1ccc2c(S(=O)(=O)N(CC(F)(F)F)c3ccc4c(c3)CCCN4C(=O)c3cccs3)cccc21 | Nuclear receptor ROR-gamma (Homo sapiens) | = | 7.25
Cn1ccc2c(S(=O)(=O)N(CC(F)(F)F)c3ccc(-c4cccc(C(N)=O)c4)cc3)cccc21 | Nuclear receptor ROR-gamma (Homo sapiens) | = | 5.82
O=C(c1cc(F)cc(-c2ccc3c(c2)CCCN3C(=O)c2c(F)cccc2Cl)c1)N1CCOCC1 | Nuclear receptor ROR-gamma (Homo sapiens) | = | 5.09
Cc1ccc(S(=O)(=O)Nc2ccc3c(c2)CCCN3C(=O)c2cccs2)cc1C | Nuclear receptor ROR-gamma (Homo sapiens) | = | 5.83
Cc1cc(C2(C(=O)O)CC2)ccc1-c1ccc(N(CC(F)(F)F)S(=O)(=O)c2cccc3c2ccn3C)cc1 | Nuclear receptor ROR-gamma (Homo sapiens) | = | 6.04
NS(=O)(=O)c1cccc(-c2ccc3c(c2)CCCN3C(=O)c2c(F)cccc2Cl)c1 | Nuclear receptor ROR-gamma (Homo sapiens) | = | 5.00
CNC(=O)c1cccc(-c2ccc(N(CC(F)(F)F)S(=O)(=O)c3cccc(Cl)c3)cc2)c1 | Nuclear receptor ROR-gamma (Homo sapiens) | < | 5.00
Cc1cc(CO)ccc1-c1ccc(N(CC(F)(F)F)S(=O)(=O)c2cccc(Cl)c2)cc1 | Nuclear receptor ROR-gamma (Homo sapiens) | = | 5.19
Cc1cc2nccn2cc1-c1ccc(N(CC(F)(F)F)S(=O)(=O)c2cccc3c2ccn3C)cc1 | Nuclear receptor ROR-gamma (Homo sapiens) | = | 5.55
Cc1ccc(S(=O)(=O)N(CC(F)(F)F)c2ccc3c(c2)CCCN3C(=O)c2cccs2)cc1C | Nuclear receptor ROR-gamma (Homo sapiens) | = | 6.70
NC(=O)c1ccccc1-c1ccc2c(c1)CCCN2C(=O)c1c(F)cccc1Cl | Nuclear receptor ROR-gamma (Homo sapiens) | < | 5.00
CNC(=O)c1ccc(F)c(-c2ccc(N(CC(F)(F)F)S(=O)(=O)c3cccc(Cl)c3)cc2)c1 | Nuclear receptor ROR-gamma (Homo sapiens) | = | 5.11
Cc1cc(CO)ccc1-c1ccc(N(CC(F)(F)F)S(=O)(=O)c2cccc3c2ccn3C)cc1 | Nuclear receptor ROR-gamma (Homo sapiens) | = | 6.20

---

# ASSAY_PROTOCOL: Aqueous solubility of compound at pH 6.8
# Format: physicochemical
# CONDITION_CONTEXT: aqueous, read-out: solubility
solubility for assorted compounds

CPD_SMILES | solubility
O=S(=O)(c1cccc(Cl)c1)N(CC(F)(F)F)c1ccc(C(O)(C(F)(F)F)C(F)(F)F)cc1 | < 0.5 µg/mL
Cn1ccc2c(S(=O)(=O)N(CC(F)(F)F)c3ccc(C(O)(C(F)(F)F)C(F)(F)F)cc3)cccc21 | < 0.5 µg/mL
NC(=O)c1ccc(Cl)c(-c2ccc3c(c2)CCCN3C(=O)c2c(F)cccc2Cl)c1 | 0.04 µg/mL

---

# TEST_TARGET: Nuclear receptor ROR-beta (Homo sapiens, UniProt Q92753)
# Sequence (Q92753 whole entry, the tested form may be a part): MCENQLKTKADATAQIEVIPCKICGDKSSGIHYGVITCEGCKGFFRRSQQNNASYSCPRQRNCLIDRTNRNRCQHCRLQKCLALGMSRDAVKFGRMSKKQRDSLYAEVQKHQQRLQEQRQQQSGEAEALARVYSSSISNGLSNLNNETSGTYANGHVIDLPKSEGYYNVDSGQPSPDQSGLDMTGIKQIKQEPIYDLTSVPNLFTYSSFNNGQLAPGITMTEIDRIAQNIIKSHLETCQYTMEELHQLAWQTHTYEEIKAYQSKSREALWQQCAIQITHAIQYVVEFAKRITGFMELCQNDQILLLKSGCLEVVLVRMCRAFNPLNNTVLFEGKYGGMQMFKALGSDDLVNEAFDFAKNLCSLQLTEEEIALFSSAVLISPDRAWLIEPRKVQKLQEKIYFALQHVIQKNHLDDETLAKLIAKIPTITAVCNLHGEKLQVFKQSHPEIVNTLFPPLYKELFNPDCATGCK
# ASSAY_PROTOCOL: Inverse agonist activity at human ROR-beta transfected in HEK293T cells by Gal4 luciferase reporter gene assay
pEC50: −log10 of the molar value.
RESULT_TYPE: pEC50

CPD_SMILES | MEASURED_RESULT
NC(=O)c1ccc(Cl)c(-c2ccc3c(c2)CCCN3C(=O)c2c(F)cccc2Cl)c1 | 5.96
